Origin of the recorded values: PubChem BioAssay (NCI)

Test system: MDA-MB-468 breast
Test: NCI tumour cell line growth inhibition, 48 h; in the data active = GI50 below about 0.43 µM; inactive = the rest
Just give me one of these, please: active, inactive

Worked examples follow.
smiles.representation: Oc1ccccc1/C=N/Nc1nc(N/N=C/c2ccccc2O)nc(N2CCOCC2)n1
class.assignment: inactive

smiles.representation: Cn1cc(C2=C(c3cccc(N)c3)C(=O)NC2=O)c2ccccc21
class.assignment: inactive

smiles.representation: CCCCCc1nc2c(c3c1CCCC3)CCCC2
class.assignment: inactive

smiles.representation: Cc1cc2cc3cc(C)c(N(C)C)cc3[n+](C)c2cc1N(C)C
class.assignment: inactive

smiles.representation: C/C=C/C/C=C/CCC(=O)[C@H]1O[C@H]1C(N)=O
class.assignment: inactive

smiles.representation: CN1CCN(Cc2ccc(NC(=O)c3cncc(C#Cc4cnc5ccc(N[C@@H]6CCOC6)nn45)c3)cc2C(F)(F)F)CC1
class.assignment: active

Consider the record given below.
Outcome? N#Cc1c(NC(=O)c2ccc(C(F)(F)F)c(Cl)c2)sc2c1CCC(=O)C2
active

====

Test system: MDA-MB-468 breast
Assay: NCI tumour cell line growth inhibition, 48 h
test.readout: TGI (µM)
// units = µM; emit number, no label

Solved entries (count: 4):
smiles.representation: CN1CCN(Cc2ccc(NC(=O)c3cncc(C#Cc4cnc5ccc(N[C@@H]6CCOC6)nn45)c3)cc2C(F)(F)F)CC1
study.system: MDA-MB-468 breast
TGI (µM): 0.194

smiles.representation: CC(C)[C@H]1CC[C@H]2[C@@H](CC[C@H]3[C@](C)(CN)CCC[C@]23C)C1
study.system: MDA-MB-468 breast
TGI (µM): 23.5

smiles.representation: O=S(=O)(Cc1ccc(Cl)cc1Cl)c1ccc(Cl)cc1
study.system: MDA-MB-468 breast
TGI (µM): 2.19

smiles.representation: CC(C)c1c(C(=O)Nc2ccccc2)c(-c2ccccc2)c(-c2ccc(F)cc2)n1CC[C@@H]1CC=CC(=O)O1
study.system: MDA-MB-468 breast
TGI (µM): 3.82

What value of measured TGI is listed for O=c1c2c3c(sc2n2c(-c4cc(-c5ccccc5)no4)nnc2n1Cc1ccccc1)CCCC3 ?
43.8

====

System: HOP-92 NSCLC
Assay: NCI tumour cell line growth inhibition, 48 h
test.readout: TGI (µM)
// units = µM; emit number, no label

Solved entries (count: 2):
compound: O=C(CNc1nc(-c2ccccc2)cs1)Nc1cccc([N+](=O)[O-])c1
TGI, µM: 0.66
//
compound: CCOC(=O)C(Cc1ccccc1)N1C(=O)/C(=C/N2N=C(c3ccc(OC)cc3)CC2c2ccc3ccccc3c2)SC1=S (centres undefined)
TGI, µM: 12.1

Turning now to a further compound:
// map N#Cc1c(NC(=O)c2ccc(C(F)(F)F)c(Cl)c2)sc2c1CCC(=O)C2 to recorded TGI (system: HOP-92 NSCLC)
3.24

====

Test system: K-562 leukemia
Assay: NCI tumour cell line growth inhibition, 48 h
test.readout: TGI

What value of measured TGI is listed for Cn1ncc2c(N)nc(Oc3ccccc3-c3ccccc3)nc21 ?
> 100 µM

====

Catalogue of TGI readings, one per entry.
Tested on: UACC-62 melanoma
Test: NCI tumour cell line growth inhibition, 48 h
// units = µM; emit number, no label

molecule: Cn1ncc2c(N)nc(Oc3ccccc3-c3ccccc3)nc21
study.system: UACC-62 melanoma
TGI [µM]: 36.7
//
molecule: CCOC(=O)C(Cc1ccccc1)N1C(=O)/C(=C/N2N=C(c3ccc(OC)cc3)CC2c2ccc3ccccc3c2)SC1=S (centres undefined)
study.system: UACC-62 melanoma
TGI [µM]: 6.97

Turning now to a further molecule:
// map O=C(CNc1nc(-c2ccccc2)cs1)Nc1cccc([N+](=O)[O-])c1 to recorded TGI (system: UACC-62 melanoma)
0.245

====

Tested on: MDA-MB-468 breast
Experiment: NCI tumour cell line growth inhibition, 48 h
test.readout: log10 of TGI (log10 of the value in µM)
A difference of one corresponds to tenfold TGI; all values are log10 with TGI in µM.

Solved entries (count: 5):
compound: Cc1ccc(NC(=O)Cc2ccc(/C=C/C(=O)c3ncc[nH]3)cc2)cc1
log10 of TGI: 1.37
//
compound: Cc1cc2cc3cc(C)c(N(C)C)cc3[n+](C)c2cc1N(C)C
log10 of TGI: 1.13
//
compound: Cn1cc(C2=C(c3cn(CCO)c4ccccc34)C(=O)NC2=O)c2ccccc21
log10 of TGI: 1.03
//
compound: CC/C(=C(/c1ccc(OCCN(C)C)cc1)c1ccc(OC(=O)CCC(=O)c2c(C)[nH]c(/C=C3\N=C(c4ccc[nH]4)C=C3OC)c2C)cc1)c1ccccc1
log10 of TGI: 1.15
//
compound: Oc1ccccc1/C=N/Nc1nc(N/N=C/c2ccccc2O)nc(N2CCOCC2)n1
log10 of TGI: 1.56

// map Cc1cc(NCCCNc2ccnc3cc(Cl)ccc23)nc(N2CCN(C)CC2)n1 to recorded log10 of TGI (system: MDA-MB-468 breast)
0.78

// map CN(Cc1ccc(Cl)cc1)c1ccc(CO)c(Cl)c1 to recorded log10 of TGI (system: MDA-MB-468 breast)
-0.66

// map N#Cc1c(NC(=O)c2ccc(C(F)(F)F)c(Cl)c2)sc2c1CCC(=O)C2 to recorded log10 of TGI (system: MDA-MB-468 breast)
0.17

// map CCOC(=O)C(Cc1ccccc1)N1C(=O)/C(=C/N2N=C(c3ccc(OC)cc3)CC2c2ccc3ccccc3c2)SC1=S (stereo unspecified) to recorded log10 of TGI (system: MDA-MB-468 breast)
0.86

====

System: MDA-MB-231 breast
Assay: NCI tumour cell line growth inhibition, 48 h; in the data active means GI50 below about 0.43 µM; inactive means the rest
Just give me one of these, please: active, inactive

Worked examples follow.
compound: O=C(CNc1nc(-c2ccccc2)cs1)Nc1cccc([N+](=O)[O-])c1
class.assignment: active
--
compound: CCOC(=O)C(Cc1ccccc1)N1C(=O)/C(=C/N2N=C(c3ccc(OC)cc3)CC2c2ccc3ccccc3c2)SC1=S (centres undefined)
class.assignment: inactive
--
compound: NS(=O)(=O)c1cccc(Nc2nc(SCC(=O)c3ccc(F)cc3)nc3ccccc23)c1
class.assignment: inactive

Consider the record given below.
Outcome? N#Cc1c(NC(=O)c2ccc(C(F)(F)F)c(Cl)c2)sc2c1CCC(=O)C2
inactive

====

System: K-562 leukemia
Experiment: NCI tumour cell line growth inhibition, 48 h
test.readout: TGI

Solved entries (count: 2):
compound: CCOC(=O)C(Cc1ccccc1)N1C(=O)/C(=C/N2N=C(c3ccc(OC)cc3)CC2c2ccc3ccccc3c2)SC1=S (stereo not drawn)
test.readout: TGI
value: > 100 µM
//
compound: NS(=O)(=O)c1cccc(Nc2nc(SCC(=O)c3ccc(F)cc3)nc3ccccc23)c1
test.readout: TGI
value: > 57.7 µM

Turning now to a further compound:
What value of measured TGI is listed for O=C(CNc1nc(-c2ccccc2)cs1)Nc1cccc([N+](=O)[O-])c1 ?
11.2 µM
